# target entity: NDM-1 (Purified) (Klebsiella pneumoniae)
# Sequence (C7C422 29-270 limits assumed): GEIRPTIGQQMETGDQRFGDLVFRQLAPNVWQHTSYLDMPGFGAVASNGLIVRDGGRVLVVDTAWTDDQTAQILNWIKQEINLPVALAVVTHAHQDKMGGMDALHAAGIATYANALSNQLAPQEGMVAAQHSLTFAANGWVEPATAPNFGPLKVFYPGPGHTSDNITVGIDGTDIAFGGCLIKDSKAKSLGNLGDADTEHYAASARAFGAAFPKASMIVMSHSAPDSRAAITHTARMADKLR
# assay: In vitro β-lactamase inhibition screening, NDM-1
# Type: biochemical
# run conditions: class B enzymes, effect of N-thiolation
measurement type: inhibition of NDM-1 (in words)

Example cases with answers are listed next.
compound | inhibition of NDM-1 (in words)
C=CCON(C(=O)c1ccc([N+](=O)[O-])cc1)C1CC(=O)N1SC (centres unmarked) | potent inhibitor
CCOc1ccc(C(=O)N(OCc2ccccc2)C2CC(=O)N2SC)cc1 (centres unmarked) | potent inhibitor
CSN1C(=O)[C@@H](NC(=O)COc2ccccc2)[C@@H]1N(OCc1ccccc1)C(=O)c1cc([N+](=O)[O-])cc(C(F)(F)F)c1 (racemic) [Compound 24b] | potent inhibitor
CCOc1ccc(C(=O)N(OCc2ccccc2)C2CC(=O)N2)cc1 (centres unmarked) | inactive

// query NDM-1 (Purified) (Klebsiella pneumoniae) / inhibition of NDM-1 (in words) / C=CCON(C(=O)c1ccc([N+](=O)[O-])cc1)C1CC(=O)N1 (centres unmarked) : value?
// result inactive
